Target: HLA-A24.02
Assay: Class I MHC peptide binding affinity (displacement of radiolabeled reference peptide)
Set-up: species or system human
Conditions: allele A24.02; read-out: Observed Affinity (IC50; (nM))
Where a SMILES comes first, the peptide text is derived from it.
# reported IC50; entries follow
Just the number plus its unit, please.

query: Given the compound CC(C)C[C@H](NC(=O)[C@H](CC(C)C)NC(=O)[C@H](CC(C)C)NC(=O)[C@H](CC(=O)O)NC(=O)[C@H](CO)NC(=O)[C@H](CC(C)C)NC(=O)[C@@H]1CCCN1C(=O)[C@@H](NC(=O)[C@@H](N)C(C)C)C(C)C)C(=O)O (H-VVPLSDLLL-OH; N-terminus and C-terminus assumed) , write its reported IC50.
result: 8250 nM

query: Given the compound CC[C@H](C)[C@H](NC(=O)[C@H](Cc1c[nH]c2ccccc12)NC(=O)[C@H](CC(C)C)NC(=O)[C@@H]1CCCN1C(=O)[C@H](CO)NC(=O)[C@H](CCCNC(=N)N)NC(=O)[C@H](CC(C)C)NC(=O)[C@@H](N)CCCCN)C(=O)N[C@@H](Cc1ccccc1)C(=O)O (H-KLRSPLWIF-OH; N-terminus and C-terminus assumed) , write its reported IC50.
result: 828 nM

query: Given the compound CC[C@H](C)[C@H](NC(=O)[C@H](Cc1ccc(O)cc1)NC(=O)[C@@H](N)CC(C)C)C(=O)N[C@H](C(=O)N[C@@H](C)C(=O)N[C@@H](Cc1ccccc1)C(=O)N[C@@H](Cc1ccccc1)C(=O)N[C@@H](Cc1ccccc1)C(=O)N[C@@H](CS)C(=O)N[C@@H](Cc1c[nH]c2ccccc12)C(=O)O)[C@@H](C)O (H-LYITAFFFCW-OH; N-terminus and C-terminus assumed) , write its reported IC50.
result: 45.3 nM

----------
Molecular target: HLA-A03.01 (Homo sapiens, UniProt P04439)
Sequence (P04439 25-365): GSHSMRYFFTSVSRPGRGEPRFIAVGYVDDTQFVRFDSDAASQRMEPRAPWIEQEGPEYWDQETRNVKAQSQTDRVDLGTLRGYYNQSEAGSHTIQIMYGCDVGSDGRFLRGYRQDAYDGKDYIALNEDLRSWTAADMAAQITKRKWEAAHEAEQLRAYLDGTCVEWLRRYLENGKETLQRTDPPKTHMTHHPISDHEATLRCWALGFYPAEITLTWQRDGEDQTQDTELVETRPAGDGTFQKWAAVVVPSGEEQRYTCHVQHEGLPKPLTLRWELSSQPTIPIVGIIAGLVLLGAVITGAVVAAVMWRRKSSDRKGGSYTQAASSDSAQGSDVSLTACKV
Sequence (P61769 21-119 partner): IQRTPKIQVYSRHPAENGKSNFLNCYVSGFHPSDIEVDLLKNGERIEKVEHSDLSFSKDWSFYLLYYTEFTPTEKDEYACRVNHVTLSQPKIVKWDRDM
Experiment: Class I MHC peptide binding affinity (displacement of radiolabeled reference peptide)
Details: allele A03.01; read-out: Observed Affinity (IC50; (nM))
Where a SMILES comes first, the peptide text is derived from it.
value.kind: IC50 (nM)
Use nM as the unit, but write only the number.

A selection of reference data follows.
compound="CSCC[C@H](NC(=O)[C@@H](NC(=O)[C@@H](N)Cc1ccccc1)C(C)C)C(=O)N[C@@H](CO)C(=O)N[C@@H](CC(=O)O)C(=O)N[C@H](C(=O)N[C@H](C(=O)N[C@@H](Cc1ccc(O)cc1)C(=O)N[C@@H](CCCCN)C(=O)O)[C@@H](C)O)[C@@H](C)O (H-FVMSDTTYK-OH; N-terminus and C-terminus assumed)" quantity_unit=nM val=66.9
compound="CC(C)[C@H](NC(=O)[C@H](CCCNC(=N)N)NC(=O)[C@@H](N)CCCCN)C(=O)N[C@@H](CC(N)=O)C(=O)N[C@H](C(=O)N[C@@H](C)C(=O)N[C@@H](Cc1c[nH]c2ccccc12)C(=O)N[C@@H](CCCCN)C(=O)N[C@H](C(=O)N[C@@H](CCCCN)C(=O)O)[C@@H](C)O)[C@@H](C)O (H-KRVNTAWKTK-OH; N-terminus and C-terminus assumed)" quantity_unit=nM val=332
compound="CSCC[C@H](NC(=O)[C@@H](NC(=O)[C@H](Cc1ccccc1)NC(=O)[C@@H](N)CC(C)C)C(C)C)C(=O)N[C@@H](CO)C(=O)N[C@@H](CC(=O)O)C(=O)N[C@H](C(=O)N[C@H](C(=O)N[C@@H](Cc1ccc(O)cc1)C(=O)N[C@@H](CCCCN)C(=O)O)[C@@H](C)O)[C@@H](C)O (H-LFVMSDTTYK-OH; N-terminus and C-terminus assumed)" quantity_unit=nM val=749

query: Provide measured IC50 on HLA-A03.01 (Homo sapiens, UniProt P04439) for CC(C)C[C@H](NC(=O)[C@@H](NC(=O)[C@@H](N)[C@@H](C)O)[C@@H](C)O)C(=O)N[C@@H](CC(N)=O)C(=O)N[C@@H](CO)C(=O)N1CCC[C@H]1C(=O)N1CCC[C@H]1C(=O)N[C@@H](CC(C)C)C(=O)N[C@@H](CCCCN)C(=O)N[C@@H](CCCCN)C(=O)O (H-TTLNSPPLKK-OH; N-terminus and C-terminus assumed) please.
result: 14.3

query: Provide measured IC50 on HLA-A03.01 (Homo sapiens, UniProt P04439) for CC(C)C[C@H](NC(=O)[C@H](CCC(N)=O)NC(=O)[C@H](CC(C)C)NC(=O)[C@H](Cc1c[nH]cn1)NC(=O)[C@H](CC(N)=O)NC(=O)[C@H](CCC(N)=O)NC(=O)[C@H](CCCNC(=N)N)NC(=O)[C@H](CO)NC(=O)[C@@H](N)CCCCN)C(=O)N[C@@H](CCCCN)C(=O)O (H-KSRQNHLQLK-OH; N-terminus and C-terminus assumed) please.
result: 4.7
